- MEASURED ON: T1, GRIP1_7, Q9Y3R0
- T1 sequence (Q9Y3R0 999-1096, limits assumed, looked up): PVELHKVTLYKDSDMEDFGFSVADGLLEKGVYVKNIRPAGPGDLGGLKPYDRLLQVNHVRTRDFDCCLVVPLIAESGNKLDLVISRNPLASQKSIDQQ
- PROCEDURE SUMMARY: holdup assay
- Design: key: below the threshold = too weak to quantify, mostly under pKd 3.1 to 4
- DETAILS: plain residues with an end cap or a label only (N-terminal biotin on a linker: ttds)
RECORDED ENDPOINT: pKd

GRLLGLETNV [ARHGEF26, Q96DR7]    4.11
KLVIKTETTV [RASSF6, Q6ZTQ3]    3.72
SSIDLWETAL [SLC15A5, A6NIM6]    below the threshold
KQVVPFSSSV [GDA, Q9Y2T3]    below the threshold
SRSRRRETAL [HPV33-E6, P06427]    below the threshold

Given the binder SHSSKGETAV [FZD7, O75084] , what is its reported pKd?
below the threshold

Given the binder GARVSKETPL [MAPK12, P53778] , what is its reported pKd?
below the threshold

Given the binder PFRSRSPSEV [GPR6, P46095] , what is its reported pKd?
3.63

Given the binder PPRQRSETQV [HPV82-E6, Q9IR59] , what is its reported pKd?
below the threshold

Given the binder DLDEEEDTHL [PODXL, O00592] , what is its reported pKd?
below the threshold

Given the binder NPDALPETLV [ARHGAP6, O43182] , what is its reported pKd?
3.61

Given the binder SGGKRKETLV [NET1, Q7Z628] , what is its reported pKd?
below the threshold

Given the binder PSRDRKETSI [RALBP1, Q15311] , what is its reported pKd?
3.49

Given the binder FVETQHQTQV [FAT3, Q8TDW7] , what is its reported pKd?
below the threshold

Given the binder QRPYRRESEI [KCNJ12, Q14500] , what is its reported pKd?
below the threshold
